Entry source: patent US11066436B2

# target.of.assay: human DcpS enzyme (hDcpS) (Homo sapiens)
# Construct: made in house
# Sequence (Q96C86 1-337): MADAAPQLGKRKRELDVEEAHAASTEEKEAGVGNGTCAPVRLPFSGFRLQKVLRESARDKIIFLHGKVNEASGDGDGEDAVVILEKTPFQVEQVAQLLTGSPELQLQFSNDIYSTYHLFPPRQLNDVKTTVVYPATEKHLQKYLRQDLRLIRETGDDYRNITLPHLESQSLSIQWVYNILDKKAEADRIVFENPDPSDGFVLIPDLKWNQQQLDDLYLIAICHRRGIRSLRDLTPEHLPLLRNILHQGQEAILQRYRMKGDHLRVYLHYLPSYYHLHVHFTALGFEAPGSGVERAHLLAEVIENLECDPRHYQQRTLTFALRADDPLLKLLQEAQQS
# experiment.summary: Susceptibility of cap analogs to degradation by DcpS enzyme (RP-HPLC)
# Format: biochemical
# conditions.used: cap analog 20 μM, hDcpS 100 nM, RP-HPLC
# Method: Test 1. The Susceptibility Study of Analogs to Degradation by DcpS Enzyme. The aim of the test was to check if new 5′-thiophosphate cap analogs are hydrolyzed by human DcpS enzyme (hDcpS). Recombinant human protein encoding DcpS enzyme was expressed as described previously (Kowalska, Lewdorowicz et al. 2008). […] Sample is incubated at 98° C. for 2.5 min, and then cooled to 0° C. and analyzed on RP-HPLC under conditions described in general informations. […]
quantity: DcpS susceptibility

// below: answered molecules
# molecule, DcpS susceptibility
rows = [
    ("C[n+]1cn([C@@H]2O[C@H](COP(=O)(O)CP(=O)(O)OP(=O)([O-])SC[C@H]3O[C@@H](n4cnc5c(=O)[nH]c(N)nc54)C(O)C3O)C(O)C2O)c2nc(N)nc(O)c21 (some centres unmarked) [compound 37]", "resistant/inhibitor"),
    ("Nc1nc2c(ncn2[C@@H]2O[C@H](COP(=O)(O)OP(=O)(O)SC[C@H]3O[C@@H](n4cnc5c(=O)[nH]c(N)nc54)[C@H](O)[C@@H]3O)[C@@H](O)[C@H]2O)c(=O)[nH]1 [compound 19]", "hydrolyzable"),
    ("C[n+]1cn([C@@H]2O[C@H](COP(=O)(O)OP(=O)(O)O)[C@@H](O)[C@H]2O)c2nc(N)nc([O-])c21 [compound 00]", "resistant/inhibitor"),
    ("COC1C(O)[C@@H](CSP(=O)([O-])OP(=O)(O)OP(=O)(O)OC[C@H]2O[C@@H](n3cnc4c(=O)[nH]c(N)nc43)C(O)C2O)O[C@H]1n1c[n+](C)c2c(O)nc(N)nc21 (some centres unmarked) [compound 26]", "resistant/inhibitor"),
]

Please find the next molecule below.
Request: Give recorded DcpS susceptibility with human DcpS enzyme (hDcpS) (Homo sapiens) for the following molecule: COC1C(O)[C@@H](COP(=O)(O)OP(=O)(O)OP(=O)([O-])SC[C@H]2O[C@@H](n3cnc4c(=O)[nH]c(N)nc43)C(O)C2O)O[C@H]1n1c[n+](C)c2c(O)nc(N)nc21 (some centres unmarked) [compound 38]
Result: hydrolyzable

###

# target.of.assay: human DcpS enzyme (hDcpS) (Homo sapiens, UniProt Q96C86)
# Construct: made in house
# Sequence (Q96C86 1-337): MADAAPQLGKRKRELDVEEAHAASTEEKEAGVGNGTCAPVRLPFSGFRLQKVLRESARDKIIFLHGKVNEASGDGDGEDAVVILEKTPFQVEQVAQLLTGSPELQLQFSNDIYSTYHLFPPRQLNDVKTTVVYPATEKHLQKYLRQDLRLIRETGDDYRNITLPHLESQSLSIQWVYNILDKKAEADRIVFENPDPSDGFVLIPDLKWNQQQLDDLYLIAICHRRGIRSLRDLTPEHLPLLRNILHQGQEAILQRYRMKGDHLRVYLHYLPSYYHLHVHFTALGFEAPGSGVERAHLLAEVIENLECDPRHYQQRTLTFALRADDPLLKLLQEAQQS
# experiment.summary: Susceptibility of cap analogs to degradation by DcpS enzyme (RP-HPLC)
# Format: biochemical
# conditions.used: cap analog 20 μM, hDcpS 100 nM, RP-HPLC
quantity: DcpS susceptibility

Completed entries (count: 4):
# compound, recorded.result
rows = [
    ("C[n+]1cn([C@@H]2O[C@H](COP(=O)(O)OP(=O)(O)OP(=O)([O-])SC[C@H]3O[C@@H](n4cnc5c(=O)[nH]c(N)nc54)C(O)C3O)C(O)C2O)c2nc(N)nc(O)c21 (stereo partly shown)", "hydrolyzable"),
    ("Cn1c[n+]([C@@H]2O[C@H](COP(=O)(O)OP(=O)([O-])OP(=O)(O)OC[C@H]3O[C@@H](n4cnc5c(=O)[nH]c(N)nc54)[C@H](O)[C@@H]3O)[C@@H](O)[C@H]2O)c2nc(N)[nH]c(=O)c21", "hydrolyzable"),
    ("C[n+]1cn([C@@H]2O[C@H](CSP(=O)(O)OP(=O)([S-])OP(=O)(O)OC[C@H]3O[C@@H](n4cnc5c(=O)[nH]c(N)nc54)C(O)C3O)C(O)C2O)c2nc(N)nc(O)c21 (stereo partly shown) [compound 30]", "resistant/inhibitor"),
    ("C[n+]1cn([C@@H]2O[C@H](CSP(=O)(O)OP(=O)([S-])OP(=O)(O)SC[C@H]3O[C@@H](n4cnc5c(=O)[nH]c(N)nc54)C(O)C3O)C(O)C2O)c2nc(N)nc(O)c21 (single isomer, unassigned) [compound 33]", "resistant/inhibitor"),
]

Items follow; give DcpS susceptibility for each.
1. C[n+]1cn([C@@H]2O[C@H](CSP(=O)([O-])OP(=O)(O)OP(=O)(O)SC[C@H]3O[C@@H](n4cnc5c(=O)[nH]c(N)nc54)C(O)C3O)C(O)C2O)c2nc(N)nc(O)c21 (stereo partly shown)
2. C[n+]1cn([C@@H]2O[C@H](CSP(=O)(O)OP(=O)([S-])OP(=O)(O)SC[C@H]3O[C@@H](n4cnc5c(=O)[nH]c(N)nc54)C(O)C3O)C(O)C2O)c2nc(N)nc(O)c21 (single isomer, unassigned) [compound 34]
3. C[n+]1cn([C@@H]2O[C@H](CSP(=O)([O-])OP(=O)(O)OC[C@H]3O[C@@H](n4cnc5c(=O)[nH]c(N)nc54)C(O)C3O)C(O)C2O)c2nc(N)nc(O)c21 (stereo in doubt)
4. C[n+]1cn([C@@H]2O[C@H](COP(=O)(O)OP(=O)([S-])OP(=O)(O)SC[C@H]3O[C@@H](n4cnc5c(=O)[nH]c(N)nc54)C(O)C3O)C(O)C2O)c2nc(N)nc(O)c21 (stereo partly shown) [compound 35]
5. C[n+]1cn([C@@H]2O[C@H](CSP(=O)([O-])OP(=O)(O)OP(=O)(O)OC[C@H]3O[C@@H](n4cnc5c(=O)[nH]c(N)nc54)C(O)C3O)C(O)C2O)c2nc(N)nc(O)c21 (stereo partly shown)
6. C[n+]1cn([C@@H]2O[C@H](COP(=O)(O)OP(=O)([S-])OP(=O)(O)SC[C@H]3O[C@@H](n4cnc5c(=O)[nH]c(N)nc54)C(O)C3O)C(O)C2O)c2nc(N)nc(O)c21 (stereo partly shown) [compound 36]

Result:
["resistant/inhibitor", "resistant/inhibitor", "resistant/inhibitor", "hydrolyzable", "resistant/inhibitor", "hydrolyzable"]
